- Test system: Wnt5a (protein binding on small-molecule microarray)
- assay explanation: small molecules binding Wnt5a protein – biophysical, small-molecule microarray, 635/667 nm fluorescence, primary screen (AID 1142);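 note: fluorescence read at 667 nm with signal to noise per printed feature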
- condition info: 635 nm fluorescence, higher = more signal
Use -0.4 as the dividing line for composite z-score, with the line itself on the condition met side and lower values as condition not met.

| molecule | qualitative label |
| --- | --- |
| N#Cc1ccc(C(O)C2C=CC3C(=O)N(c4ccccc4)C(=O)C3N2Nc2ccccc2F)cc1 (configuration not stated) | condition met |

Query :: Could you please find out whether O=C1O[C@@H](c2ccccc2)[C@@H](c2ccccc2)N2[C@@H](c3ccc(OCCO)cc3)[C@]3(C(=O)Nc4ccc(C#CCCO)cc43)[C@@H](C(=O)NC[C@H](O)c3ccccc3)[C@H]12 has composite z-score that meets -0.4 or exceeds it?
Result :: condition met

Query :: Given CCCCCCCCCCC(O)C1C=CC2C(=O)NC(=O)C2N1Nc1ccc(Cl)cc1Cl (configuration not stated) , state whether its composite z-score is at least -0.4.
Result :: condition met

Query :: Hello, I need to know if CC1CC/C=C\[C@H]2OC34C=CCN(Cn5nnc6ccccc65)C(=O)[C@H]3N(CCCCCO)C(=O)[C@@H]4C2C(=O)O1 (some centres not stated) has measured composite z-score not below -0.4. Thanks!
Result :: condition not met

Query :: Would you say O=C(O)C1N=C(c2ccc(OCCCO)cc2)N(c2ccccc2)O1 (configuration not stated) shows composite z-score at minimum -0.4?
Result :: condition met

Query :: Determine whether measured composite z-score meets or exceeds -0.4 for C[C@H]1C2[C@H](Cc3ccccc3)NC(=O)[C@]23C(=O)NCC(=O)N2CCC[C@H]2C(=O)NC/C=C/CCC/C=C/C3[C@@H]2O[C@]12C (some centres not stated)
Result :: condition met

====

- target entity: NADPH oxidase 5 (Homo sapiens) (UniProt Q96PH1)
- Sequence (Q96PH1 whole entry, looked up): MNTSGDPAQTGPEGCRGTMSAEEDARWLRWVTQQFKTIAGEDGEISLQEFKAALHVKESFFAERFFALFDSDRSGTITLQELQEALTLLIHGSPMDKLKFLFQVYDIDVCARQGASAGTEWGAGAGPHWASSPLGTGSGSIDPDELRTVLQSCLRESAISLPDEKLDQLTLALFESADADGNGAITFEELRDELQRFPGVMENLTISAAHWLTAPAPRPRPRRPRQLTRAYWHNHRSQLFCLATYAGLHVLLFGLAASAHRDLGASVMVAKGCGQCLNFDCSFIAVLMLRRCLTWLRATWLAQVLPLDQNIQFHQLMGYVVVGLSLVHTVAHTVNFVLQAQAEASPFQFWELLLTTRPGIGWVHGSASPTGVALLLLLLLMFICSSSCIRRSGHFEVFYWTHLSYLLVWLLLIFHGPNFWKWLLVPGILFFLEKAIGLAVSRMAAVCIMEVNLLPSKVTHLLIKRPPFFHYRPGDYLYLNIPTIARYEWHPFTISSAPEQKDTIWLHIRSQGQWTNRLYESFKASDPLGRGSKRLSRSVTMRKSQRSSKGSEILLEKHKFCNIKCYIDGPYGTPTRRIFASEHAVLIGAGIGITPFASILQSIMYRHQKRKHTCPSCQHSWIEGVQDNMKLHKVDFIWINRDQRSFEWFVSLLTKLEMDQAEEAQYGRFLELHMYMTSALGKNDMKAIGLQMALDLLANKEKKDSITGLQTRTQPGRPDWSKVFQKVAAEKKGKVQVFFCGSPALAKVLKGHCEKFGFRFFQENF
- assay explanation: compounds shifting NOX5 Amplex Red fluorescence – cell-based, HEK293-NOX5, NOX inhibitor project, primary screen (AID 1161)
- condition info: HEK293-NOX5, ionomycin, 45 min, higher = more signal
Cut-off -0.7 on z-score, inclusive. At or above means 1; below means -1.

Reference set (8 entries):
| compound | target entity | qualitative label |
| --- | --- | --- |
| C[C@H]1C2[C@H](Cc3ccccc3)NC(=O)[C@]23C(=O)NCC(=O)N2CCC[C@H]2C(=O)NC/C=C/CCC/C=C/C3[C@@H]2O[C@]12C (some centres not stated) | NADPH oxidase 5 (Homo sapiens) (UniProt Q96PH1) | 1 |
| O=C1OCC=C[C@H]2OC34C=CCN(CCN5CCOCC5)C(=O)[C@H]3N(CCO)C(=O)[C@@H]4[C@@H]12 (some centres not stated) | NADPH oxidase 5 (Homo sapiens) (UniProt Q96PH1) | 1 |
| CC#CC(=O)Oc1ccc(Br)cc1C=CC(=O)OCC | NADPH oxidase 5 (Homo sapiens) (UniProt Q96PH1) | 1 |
| C=CC[C@]12N=C(c3ccc(OCCCO)cc3)O[C@H]1c1ccccc1N(CCS(=O)(=O)c1ccccc1)C2=O | NADPH oxidase 5 (Homo sapiens) (UniProt Q96PH1) | -1 |
| COC(=O)[C@@]1(Cc2ccccc2)[C@H]2c3cc(C(=O)N4CCCC4)n(Cc4ccc(O)c(OC)c4)c3C[C@H]2CN1C(=O)c1ccccc1 | NADPH oxidase 5 (Homo sapiens) (UniProt Q96PH1) | -1 |
| CC(C)CCC[C@@H](C)[C@H]1CC[C@@]2(C)C3=C(CC[C@]12C)[C@@]1(C)CC[C@H](OC(=O)c2ccc(C(F)(F)F)nc2)C(C)(C)C1CC3 (some centres not stated) | NADPH oxidase 5 (Homo sapiens) (UniProt Q96PH1) | 1 |
| C=CCC(OC(C)=O)[C@@H]1[C@@H](N(Cc2ccc(-c3cccc(C(F)(F)F)c3)o2)C(=O)Cc2ccc(OC)cc2)c2cc(OCCCO)ccc2N1C(=O)c1ccc2ccccc2c1 (some centres not stated) | NADPH oxidase 5 (Homo sapiens) (UniProt Q96PH1) | -1 |
| COc1ccc([Si](C)(C)[C@@H]2[C@@H](CC(=O)N3Cc4ccccc4C[C@H]3CO)O[C@]3(C(=O)N(Cc4cccc(N5CCC5=O)c4)c4ccccc43)[C@H]2C)cc1 | NADPH oxidase 5 (Homo sapiens) (UniProt Q96PH1) | 1 |

Query :: Form field: z-score at least -0.7? Entry: COC(=O)c1c(CC[C@@H](CO)NC(=O)N[C@H](Cc2ccccc2)Cn2cc(-c3ccccn3)nn2)oc(C(C)=O)c1C(=O)OC
Result :: 1

Query :: Test whether the compound COC(=O)[C@@]1(Cc2ccc(F)cc2)[C@H]2c3cc(C(=O)N(C)C)n(Cc4ccc(C)o4)c3C[C@H]2CN1C(=O)c1ccccc1 records z-score of -0.7 or higher.
Result :: 1

Query :: Reported z-score at or above -0.7? [N-]=[N+]=NCc1ccccc1[C@@H]1OC(c2ccc(OCCCO)cc2)=N[C@]1(CCS(=O)(=O)c1ccccc1)C(=O)N1CCOCC1
Result :: 1

Query :: Is it the case that COc1ccc([Si](C)(C)[C@@H]2[C@@H](CCO)O[C@]3(C(=O)N(Cc4cccc(N5CCOC5=O)c4)c4ccccc43)[C@H]2C)cc1 has z-score reaching or exceeding -0.7?
Result :: 1

Query :: Quick check, z-score >= -0.7? CCOC(=O)C[C@H]1[C@H](OC(=O)c2ccc(-c3ccccc3)cc2)[C@@H](NC(=O)c2ccccc2)c2cc(OCCCO)ccc2N1C(=O)Cc1ccc(OC)cc1
Result :: 1

Query :: Reported z-score at or above -0.7? O=C1OCCC/C=C\[C@H]2OC34C=CCN(c5ccc6ccccc6c5)C(=O)[C@H]3N(CCCCCO)C(=O)[C@@H]4C12 (some centres not stated)
Result :: 1

Query :: Is z-score at least -0.7? Consider O=C1NC(=O)C2C1C=CC(C(O)c1ccc(I)cc1)N2Nc1ccccn1 (configuration not stated)
Result :: -1

Query :: API: above_or_equal(metric=z-score, cutoff=-0.7) for item COC(=O)[C@@]1(Cc2ccc(F)cc2)[C@H]2c3cc(C(=O)N(C)C)n(Cc4cc(C)n(C)n4)c3C[C@H]2CN1C(=O)c1ccccc1
Result :: 1

Query :: Check this compound for z-score at or above -0.7: CO[C@H]1O[C@H](CO)[C@@H](OC(=O)Nc2cccc(F)c2)[C@H](OC(=O)Nc2ccccc2)[C@H]1OC(=O)Nc1ccccc1
Result :: -1

Just for reference, PubChem BioAssay is where these values come from.
